system: OBP2; assay: Fluorescent-quench ligand-protein-binding assay (OBP2 binding screen); design: species or system Apis mellifera; key: Low, indicates no detectable binding to OBP2.; Moderate, indicates that 50% or less of the compound bound to OBP2.; Strong, indicates that 51% or more of the compound bound to OBP2
Reported property: OBP2 binding characteristic of compound

Chemical structure	Endpoint result
COc1ccc(CN2CCN(c3cccc(C)c3C)CC2)c(C)c1C	Low*

---

system: OBP2; test: Fluorescent-quench ligand-protein-binding assay (OBP2 binding screen); parameters: species or system Apis mellifera; key: Low, indicates no detectable binding to OBP2.; Moderate, indicates that 50% or less of the compound bound to OBP2.; Strong, indicates that 51% or more of the compound bound to OBP2
Reported property: OBP2 binding characteristic of compound

Compound	Endpoint result
COc1ccc(CN2CCOCC2)c(C)c1C [compound 33]	Low*
COc1ccc(CN2CCN(C)CC2)c(C)c1C [compound 25]	Low*
